# target: human BMPR1B overexpressed on the surface of HEK293T cells (N-terminal Asp-Lys epitope tag, … (human, UniProt O00238 14-502))
# Sequence (O00238 14-502): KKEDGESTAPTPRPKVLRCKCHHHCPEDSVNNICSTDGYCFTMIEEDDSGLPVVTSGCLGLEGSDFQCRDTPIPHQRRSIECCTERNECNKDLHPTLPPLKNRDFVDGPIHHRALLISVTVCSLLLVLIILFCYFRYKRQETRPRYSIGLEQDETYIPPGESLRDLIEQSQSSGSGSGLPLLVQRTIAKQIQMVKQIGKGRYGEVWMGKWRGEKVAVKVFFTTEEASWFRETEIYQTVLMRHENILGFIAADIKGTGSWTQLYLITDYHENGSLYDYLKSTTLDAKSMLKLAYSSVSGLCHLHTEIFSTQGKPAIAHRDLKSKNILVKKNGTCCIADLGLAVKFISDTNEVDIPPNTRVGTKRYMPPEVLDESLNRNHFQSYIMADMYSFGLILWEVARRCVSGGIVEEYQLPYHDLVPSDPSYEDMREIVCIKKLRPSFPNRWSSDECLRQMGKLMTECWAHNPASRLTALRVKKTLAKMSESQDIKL
# run_description: cell-based or functional assay
Listing of entries alongside the reported % live, Fab-saporin, 100pM.

- binder: "SC91.27 (murine anti-BMPR1B antibody) (antibody, V domains shown, Murine hybridoma antibody with the same VL as SC91.20) VH: QVQLQQPGAEVVKPGASVKLSCKASGYTFTNYWMQWVKQRPGQGLEWIGEIDPSDRYTMYNQKFKGKATLIVDTSSSTAYMQLSSLTSEDSAVYFCARFGYYVDYWGQGTTLTVSS VL: DVVMTQTPLSLPVSLGDQASISCRSSQSLVHSTGNTYLHWYLQKPGQSPNLLIYKVSNRFSGVPDRFSGSGSGTDFTLKISRVEAEDLGVYFCSQSTHVPFTFGSGTKLEIK"
  % live, Fab-saporin, 100pM: "11.9%"
- binder: "SC91.20 (antibody, V domains shown) VH: QVQLQQPGAEVVRPGASLKLSCKASGYTFTSYWMQWIKQRPGQGLEWIGEIDPSDNYTMYNQKFKGKATLTVDTSSSTAYMQLSSLTSEDSAVYFCARFGFYVDYWGQGTTLTVSS VL: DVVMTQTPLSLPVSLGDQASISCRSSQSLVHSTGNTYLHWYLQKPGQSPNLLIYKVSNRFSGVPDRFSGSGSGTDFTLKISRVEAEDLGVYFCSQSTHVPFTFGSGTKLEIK"
  % live, Fab-saporin, 100pM: "10.4%"

Moving on to another binder below.
Tell us which % live, Fab-saporin, 100pM value is on record for SC91.3 (murine anti-BMPR1B antibody) (antibody, V domains shown, Murine hybridoma antibody) VH: QVQLQQPGAELVKPGASVKLSCKASGYTFTSYWMQWVKQRPGQGLEWIGEIDPSDSYTLYNQKFKGKATLTVDTSSSTAYMQLSSLTSEDSAVYFCARFGYYIEYWGQGTTLTVSS VL: DVVMTQTPLSLPVSLGDQASISCRSSQSLVHSTGNTYLHWYLQKPGQSPKLLIYKVSNRFSGVPDRFSGSGSGTDFTLKISRVEAEDLGVYFCSQSTHVPFTFGSGTKLEIK 9.34%
